Quick reference for inhibition among some compounds
# PROTOCOL_DETAILS: growth inhibition, single agents and combos, LFS_MB_2R, cell-based, cisplatin combos, synergistic combos for chromothripsis tumors (AID 1671457);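 also: cells exposed to compound for four days before readout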
# CONDITION_SET: LFS_MB_2R medulloblastoma cells, at 0.5 µM, stronger effect = higher value

| COMPOUND | UNIT_OF_MEASURE | inhibition |
| --- | --- | --- |
| O=C(O)P(=O)(O)O | % | -19.3 |
| O=c1oc2c(O)c(O)cc3c(=O)oc4c(O)c(O)cc1c4c23 | % | -23 |
| Nc1nc2c(ncn2COC(CO)CO)c(=O)[nH]1 | % | 1.52 |
| CCN1CCN(c2cc3c(cc2F)c(=O)c(C(=O)O)cn3C2CC2)CC1 | % | -19.4 |
| O=NN(CCCl)C(=O)NCCCl | % | -21.9 |
| CCn1cc(C(=O)O)c(=O)c2cc3c(cc21)OCO3 | % | -21.9 |
| Cc1oncc1C(=O)Nc1ccc(C(F)(F)F)cc1 | % | -14.8 |
| Cc1ccnc2c1NC(=O)c1cccnc1N2C1CC1 | % | -7.48 |
| CC(N)C12CC3CC(CC(C3)C1)C2 (stereo not given) | % | -18.8 |
| Cc1nc2ccc(CN(C)c3ccc(C(=O)N[C@@H](CCC(=O)O)C(=O)O)s3)cc2c(=O)[nH]1 | % | -17.1 |

###

# PROTOCOL_DETAILS: viability loss with induced miR-34 in A549 – imaging, A549 dox-inducible miR-34, nuclei and caspase counts, primary screen (AID 1347080)
# CONDITION_SET: A549 miR-34 inducible, Hoechst nuclei count, 48 h; measured here: relative caspase fold change +Dox/-Dox
Peptide text beside a SMILES is read from it.
Given measured fold change, output true if it is greater than or equal to 1 and false if not.

| COMPOUND | ASSIGNED_LABEL |
| --- | --- |
| Nc1ccc(C(=O)O)cc1 | false |
| COc1cc2c(Nc3ccc(Br)cc3F)ncnc2cc1OCC1CCN(C)CC1 | true |
| CC(=O)O[C@H]1C[C@@H]2CC[C@@H]3[C@H](CC[C@@]4(C)[C@H]3C[C@H]([N+]3(C)CCCCC3)[C@@H]4OC(C)=O)[C@@]2(C)C[C@@H]1N1CCCCC1 | true |
| C[C@@H]1CN(CCCn2c3ccccc3c3ccccc32)C[C@H](C)N1 | false |
| CN(C)CC[C@@H](c1ccc(Cl)cc1)c1ccccn1 | true |
| O=C1c2ccccc2C(=O)c2c1ccc(O)c2O | true |
| CC(=O)OC/C=C(C)/C=C/C=C(C)/C=C/C1=C(C)CCCC1(C)C | true |
| CO[C@@H]1[C@@H](OC(N)=O)[C@@H](O)[C@H](Oc2ccc3c(O)c(NC(=O)c4ccc(O)c(CC=C(C)C)c4)c(=O)oc3c2C)OC1(C)C | true |
| COC(=O)[C@H](Cc1ccccc1)NC(=O)[C@@H](N)CC(=O)O (H-Asp-Phe-OMe) | true |

###

# PROTOCOL_DETAILS: compounds altering Cy5-DNA-NS3h complex signal – biochemical, LOPAC1280, artefact control for HCV NS3 helicase inhibitor project (AID 687037)
# CONDITION_SET: Cy5-DNA-NS3h complex fluorescence interference counterscreen
The source made the active and inactive calls. The rule behind the calls is not given here.
Possible outcomes: class 1 for active, class 0 for inactive

| COMPOUND | ASSIGNED_LABEL |
| --- | --- |
| CC(C)NCC(O)COc1ccc(CCOCC2CC2)cc1 (stereo unspecified) | class 0 |
| CCN1CCC[C@H]1CNC(=O)c1c(O)c(Cl)cc(Cl)c1OC | class 0 |
| NC(N)=NC(=O)Cc1c(Cl)cccc1Cl | class 0 |
| CCC1(C)CC(=O)NC1=O (stereo unspecified) | class 0 |
| CC(C)NNC(=O)c1ccncc1 | class 0 |
| C#CCN(C)Cc1ccccc1 | class 0 |
| NCCCCCC(=O)O | class 0 |
| Nc1c2c(nc3ccccc13)CCCC2O (stereo unspecified) | class 0 |
| C[C@](N)(Cc1ccc(O)cc1)C(=O)O | class 0 |
| C[C@H]1O[C@@H](n2cc(F)c(=O)[nH]c2=O)[C@H](O)[C@@H]1O | class 0 |
| CC(=O)[C@]1(O)Cc2c(O)c3c(c(O)c2[C@@H](O[C@H]2C[C@H](N)[C@H](O)[C@H](C)O2)C1)C(=O)c1ccccc1C3=O | class 1 |
| CCCCNc1c(C(=O)OCC)c(C)nc2c1cnn2CC | class 0 |
| CO[C@@]1(NC(=O)CSCC#N)C(=O)N2C(C(=O)O)=C(CSc3nnnn3C)CS[C@@H]21 | class 0 |
| c1cnc(N2CCN(Cc3ccc4c(c3)OCO4)CC2)nc1 | class 0 |
| C[n+]1cc2c3c(ccc2c2ccc4cc5c(cc4c21)OCO5)OCO3 | class 0 |
| CCOC(=O)C(C)(C)Oc1ccc(Cl)cc1 | class 0 |
| CCOC(=O)C1=C(C)NC(C)=C(C(=O)OC)C1c1cccc(Cl)c1Cl (stereo unspecified) | class 0 |
| O=NN(CCCl)C(=O)NCCCl | class 0 |
| CCCOc1ccccc1-c1nc2n[nH]nc2c(=O)[nH]1 | class 0 |
| CNC[C@H](O)c1cccc(O)c1 | class 0 |
| Cc1cn[nH]c1 | class 0 |
| O=C(O)CCCCCCCC(=O)O | class 0 |
| CCN1CCCC1CNC(=O)c1cc(S(=O)(=O)CC)c(N)cc1OC (stereo unspecified) | class 0 |
| COC(=O)[C@@H]1[C@H]2C[C@H]3c4[nH]c5ccccc5c4CCN3C[C@@H]2CC[C@@H]1O | class 0 |
| CN1CCN2c3ccccc3Cc3ccccc3C2C1 (stereo unspecified) | class 0 |
| Brc1c(NC2=NCCN2)ccc2nccnc12 | class 0 |

###

# PROTOCOL_DETAILS: viability loss in pontine glioma line – cell-based, SU-DIPG-XVII, MIPE5.0, CellTiter-Glo, qHTS, dose response (AID 1347060);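 as to AC50: cells exposed to compound for 48 hours before viability readout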
# CONDITION_SET: CellTiter-Glo ATP luminescence
Inconclusive results are not listed. Calls of active or inactive are those of the source. The limit is not given here; nearly all actives have AC50 up to about 26 µM.
Labels: active, inactive

| STRUCTURE_SMILES_STRING | ASSIGNED_LABEL |
| --- | --- |
| CCOC(=O)C(C)(C)Oc1ccc(Cl)cc1 | inactive |
| CC1=CC(=O)c2ccccc2C1=O | active |
| COCCCOc1cc(C[C@@H](C[C@H](N)[C@@H](O)C[C@H](C(=O)NCC(C)(C)C(N)=O)C(C)C)C(C)C)ccc1OC | inactive |
| Cn1cnc2c1c(=O)[nH]c(=O)n2C | inactive |
| O=c1c(O)c(-c2ccc(O)c(O)c2)oc2cc(O)cc(O)c12 | inactive |
| CN1C(C(=O)Nc2ccccn2)=C(O)c2sccc2S1(=O)=O | inactive |

###

# PROTOCOL_DETAILS: growth inhibition, single agent and combos, cell-based, chromothripsis tumors, cisplatin or BGB combos (AID 1671450);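 also: cells exposed to compound for four days; 0% = vehicle DMSO and 100% = cell killing by high DMSO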
# CONDITION_SET: HDN33 neuroblastoma cells, measured here: with cisplatin IC20 combination, at 0.5 µM, stronger effect = higher value

| STRUCTURE_SMILES_STRING | inhibition [%] |
| --- | --- |
| CCn1cc(C(=O)O)c(=O)c2cc3c(cc21)OCO3 | -3.7 |
| CCN1CCN(c2cc3c(cc2F)c(=O)c(C(=O)O)cn3C2CC2)CC1 | 1.88 |
| Nc1nc2c(ncn2COC(CO)CO)c(=O)[nH]1 | 0.325 |
| Nc1[nH]c(=O)ncc1F | -14.6 |
| O=NN(CCCl)C(=O)NCCCl | -4.17 |
| O=c1c(O)c(-c2ccc(O)c(O)c2)oc2cc(O)cc(O)c12 | 12.4 |
| Cc1nc2ccc(CN(C)c3ccc(C(=O)N[C@@H](CCC(=O)O)C(=O)O)s3)cc2c(=O)[nH]1 | 73.8 |
| O=C(O)P(=O)(O)O | -23.4 |
| Cc1ccnc2c1NC(=O)c1cccnc1N2C1CC1 | 0.871 |
| O=C(O)CCCCCCCC(=O)O | -37.4 |
| CN(C)c1ccc(C(=C2C=CC(=[N+](C)C)C=C2)c2ccc(N(C)C)cc2)cc1 | 99.6 |
| NC(=O)NO | -0.484 |
| Nc1nc(=S)c2[nH]cnc2[nH]1 | 18.7 |

###

# PROTOCOL_DETAILS: MELAS cybrid and Rieske KO viability enhancers – cell-based, MELAS cybrids, Rieske KO mouse fibroblasts, CellTiter-Glo, primary screen (AID 1508586);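 also: z relative to plate mean and SD of compound and empty wells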
# CONDITION_SET: Rieske KO mouse fibroblast survival, low glucose, CellTiter-Glo 72 h

| COMPOUND | z-score |
| --- | --- |
| CCOc1ccc(Cc2nccc3cc(OCC)c(OCC)cc23)cc1OCC | 1.27 |
| CC1(C)OC(=O)NC1=O | -0.442 |
| CCCCOC(=O)c1ccc(N)cc1 | -0.282 |
| COc1cc2c(cc1OC)C(=O)C(CC1CCN(Cc3ccccc3)CC1)C2 (stereo not given) | 0.641 |
| CCN(CC)CCOCCOC(=O)C1(c2ccccc2)CCCC1 | 0.186 |
| CCN(CC)CCNC(=O)c1cc(S(C)(=O)=O)ccc1OC | -0.0746 |
| Cc1[nH]c(C)c(Cl)c(=O)c1Cl | -1.35 |
| Cc1ccc(C(=O)Nc2ccc(S(=O)(=O)O)c3cc(S(=O)(=O)O)cc(S(=O)(=O)O)c23)cc1NC(=O)c1cccc(NC(=O)Nc2cccc(C(=O)Nc3cc(C(=O)Nc4ccc(S(=O)(=O)O)c5cc(S(=O)(=O)O)cc(S(=O)(=O)O)c45)ccc3C)c2)c1 | -0.401 |
| C[C@@H]1C[C@H]2[C@@H]3C[C@H](F)C4=CC(=O)C=C[C@]4(C)[C@@]3(F)[C@@H](O)C[C@]2(C)[C@@]1(O)C(=O)CO | 0.936 |
| CN1Cc2c(N)cccc2C(c2ccccc2)C1 (stereo not given) | 0.0395 |
| CCC1(C)CC(=O)NC1=O (stereo not given) | -0.121 |
| COc1ccc(C(=O)c2ccccc2)c(O)c1 | -1.09 |
| O=C(O)CCNC(=O)c1ccccc1 | -0.148 |
| CCCCC1C(=O)N(c2ccccc2)N(c2ccc(O)cc2)C1=O (stereo not given) | -1.25 |
| CCOC(=O)O[C@]1(C(=O)OCCl)CC[C@H]2[C@@H]3CCC4=CC(=O)C=C[C@]4(C)[C@H]3[C@@H](O)C[C@@]21C | 0.287 |
| CC1(C)O[C@@H]2C[C@H]3[C@@H]4CCC5=CC(=O)CC[C@]5(C)[C@@]4(F)[C@@H](O)C[C@]3(C)[C@]2(C(=O)CCl)O1 | 1.13 |
| CC1CC(OC(=O)C(O)c2ccccc2)CC(C)(C)N1C (stereo not given) | -0.373 |
| CC(N)CCCC(C)(C)O (stereo not given) | 0.396 |
| COc1ccc(C(=O)c2ccccc2O)c(O)c1 | -0.0959 |
| Cc1c(C(N)=O)cc([N+](=O)[O-])cc1[N+](=O)[O-] | -0.175 |
| CN(C)CCCN1c2ccccc2Sc2ccc(C(F)(F)F)cc21 | 0.266 |
| CCCCCCCCCCCCCCCCOP(=O)([O-])OCC[N+](C)(C)C | -0.431 |
| CC(=O)Nc1ccccc1 | -0.0672 |
| Cc1c(NC(C)C)c(=O)n(-c2ccccc2)n1C | -0.708 |
| CCCCNc1c(C(=O)OCC)c(C)nc2c1cnn2CC | 1.7 |
| O=c1ccc2ccccc2o1 | -0.22 |
| CN1CCC(OC(c2ccccc2)c2ccccc2)CC1 | 0.809 |
| CCn1cc(C(=O)O)c(=O)c2cnc(N3CCCC3)nc21 | -0.983 |
| CN1CCN(C2=Nc3cc(F)ccc3Cc3ccccc32)CC1 | 0.127 |
| C[N+]12CCC(CC1)C(OC(=O)C(O)(c1ccccc1)c1ccccc1)C2 (stereo not given) | -0.405 |
| CC(C)c1ccc2oc3nc(N)c(C(=O)O)cc3c(=O)c2c1 | -1.05 |
| CN1CCN(CCCN2c3ccccc3Sc3ccc(Cl)cc32)CC1 | -0.206 |
| CCn1cc(C(=O)O)c(=O)c2cnc(N3CCNCC3)nc21 | 0.0409 |
| Nc1ccc(S(=O)(=O)Nc2ccnn2-c2ccccc2)cc1 | -0.133 |
| O=c1cc[nH]c(=S)[nH]1 | -0.0433 |
| COc1cc(C)nc(-n2nc(C)cc2OC)n1 | 0.154 |
| Cc1cc(NC(=O)C2=C(O)c3ccccc3S(=O)(=O)N2C)no1 | 0.203 |
| Cc1cc(N)c2ccccc2[n+]1CCCCCCCCCC[n+]1c(C)cc(N)c2ccccc21 | -2.46 |
| CN(C)CCCN1c2ccccc2Sc2ccccc21 | -0.0726 |
| O=C(O)CCC(=O)Nc1ccc(S(=O)(=O)Nc2nccs2)cc1 | 0.552 |
| CC(CN(C)C)CN1c2ccccc2CCc2ccccc21 (stereo not given) | -0.99 |
| O=C(Nc1ccc([N+](=O)[O-])cc1Cl)c1cc(Cl)ccc1O | -0.036 |
| CCCCc1ccc2nc(NC(=O)OC)[nH]c2c1 | 0.696 |
| CC(=O)OC(C)C[N+](C)(C)C (stereo not given) | 0.138 |
| CC1=NN(c2ccccc2)C(=O)C1 | 0.67 |
| CC[N+](C)(C)Cc1ccccc1Br | 0.0274 |
| CC(C)(C(=O)c1cccnc1)c1cccnc1 | 0.502 |
| CN(C)CCc1c[nH]c2ccc(CS(=O)(=O)N3CCCC3)cc12 | -0.352 |
| O=C1c2c(O)cccc2Cc2cccc(O)c21 | 0.465 |
| O=c1oc2cc(O)ccc2s1 | 0.46 |
